testedSystem: human recombinant histamine H3R stably expressed in HEK-293 cells (Homo sapiens)
Construct: HEK-293 cells stably expressing the recombinant full length hH3R; expressed in transfected cells; crude membrane preparations
Sequence (Q9Y5N1 whole entry): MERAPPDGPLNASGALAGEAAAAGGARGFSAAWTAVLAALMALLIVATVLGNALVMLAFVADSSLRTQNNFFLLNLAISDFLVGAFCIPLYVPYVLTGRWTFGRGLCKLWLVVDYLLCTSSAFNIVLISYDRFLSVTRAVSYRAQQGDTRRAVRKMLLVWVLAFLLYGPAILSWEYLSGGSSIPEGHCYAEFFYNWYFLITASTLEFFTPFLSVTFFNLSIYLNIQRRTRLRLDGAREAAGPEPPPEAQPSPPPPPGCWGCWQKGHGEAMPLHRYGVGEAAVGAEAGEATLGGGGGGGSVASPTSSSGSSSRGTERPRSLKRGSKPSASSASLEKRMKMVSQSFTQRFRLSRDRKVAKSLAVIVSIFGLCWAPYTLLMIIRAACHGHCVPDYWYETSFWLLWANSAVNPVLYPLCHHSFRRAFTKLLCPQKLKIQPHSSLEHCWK
testProtocol: [3H]Nα-methylhistamine hH3R displacement (radioligand depletion) binding assay
settings: hH3R Ki [nM] x¯ [CI 95%], [3H]Nα-methylhistamine displacement, HEK-293 membranes; mean [95% confidence interval]
# label = True if Ki < 1000 nM else False

Below 1000 nM on Ki? Entry `O=C(O)C(=O)O.O=C(c1ccccc1)c1ccc(OCCCN2CCN(C(=O)C3CC3)CC2)cc1` False

For `O=C(O)C(=O)O.O=C(c1ccc(F)cc1)c1ccc(OCCCN2CCN(C(=O)C3CC3)CC2)cc1` , is the recorded Ki below the cut-off of 1000 nM? False

Field: below-cutoff. Rule: recorded Ki strictly less than 1000 nM. Subject: `COc1cccc(N2CCN(CCCOc3ccc(C(=O)c4ccc(F)cc4)cc3)CC2)c1.O=C(O)C(=O)O` True

Problem: For the compound `O=C(O)C(=O)O.O=C(c1ccc(Cl)cc1)c1ccc(OCCCN2CCN(C(=O)C3CC3)CC2)cc1` , is Ki under 1000 nM? False

Is the reported Ki for `CC(=O)N1CCN(CCCOc2ccc(C(=O)c3ccccc3)cc2)CC1.O=C(O)C(=O)O` strictly below 1000 nM? False

Regarding `CC(=O)N1CCN(CCCOc2ccc(C(=O)c3ccc(F)cc3)cc2)CC1.O=C(O)C(=O)O` , kindly confirm whether its Ki is beneath 1000 nM. False

###

testedSystem: human recombinant histamine H3R stably expressed in HEK-293 cells (Homo sapiens)
Construct: HEK-293 cells stably expressing the recombinant full length hH3R; expressed in transfected cells; crude membrane preparations
testProtocol: [3H]Nα-methylhistamine hH3R displacement (radioligand depletion) binding assay
settings: [3H]Nα-methylhistamine displacement, HEK-293 membranes; mean [95% confidence interval]; read-out: hH3R Ki [nM] x¯ [CI 95%]
metric: Ki (nM)
I only need the number, in nM, no unit after it.

Write down Ki measured for item `CC(=O)N1CCN(CCCOc2ccc(C(=O)c3ccc(Cl)cc3)cc2)CC1` 1260

Determine its reported Ki: `O=C(c1ccc(F)cc1)c1ccc(OCCCN2CCN(c3ccc([N+](=O)[O-])cc3)CC2)cc1` 580

Look up and state reported Ki for `CC(=O)c1ccc(N2CCN(CCCOc3ccc(C(=O)c4ccc(F)cc4)cc3)CC2)cc1` 1010

For `O=C(c1ccc(Cl)cc1)c1ccc(OCCCN2CCN(c3ccc([N+](=O)[O-])cc3)CC2)cc1` , write its Ki. 622

Given `CC(=O)c1ccc(N2CCN(CCCOc3ccc(C(=O)c4ccccc4)cc3)CC2)cc1` , respond with its Ki. 633

###

testProtocol: DPPH free radical scavenging assay
settings: 10^−4 mol/L; 30 min incubation; vs solvent + reaction mixture blank
metric: DPPH Assay (λ = 517 nm) Absorbance Decrease in 10^−4 mol/L Concentration [%] Mean ± SEM (%)
Lab book: enter the figure in %, no units written.

In one line, give reported DPPH Assay (λ = 517 nm) Absorbance Decrease in 10^−4 mol/L Concentration [%] Mean ± SEM of the entry COc1cccc(N2CCN(CCCOc3ccc(C(=O)c4ccc(F)cc4)cc3)CC2)c1.O=C(O)C(=O)O [Compound 18] . 6.35

Indicate the recorded DPPH Assay (λ = 517 nm) Absorbance Decrease in 10^−4 mol/L Concentration [%] Mean ± SEM value for this compound: O=C(O)C(=O)O.O=C(c1ccccc1)c1ccc(OCCCN2CCN(C(=O)C3CC3)CC2)cc1 [Compound 7] 6.23

Identify measured DPPH Assay (λ = 517 nm) Absorbance Decrease in 10^−4 mol/L Concentration [%] Mean ± SEM associated with CC(=O)N1CCN(CCCOc2ccc(C(=O)c3ccc(F)cc3)cc2)CC1.O=C(O)C(=O)O [Compound 6] 8.82

Name the recorded DPPH Assay (λ = 517 nm) Absorbance Decrease in 10^−4 mol/L Concentration [%] Mean ± SEM of the compound listed here: O=C1O[C@H]([C@@H](O)CO)C(O)=C1O [Ascorbic acid, L-ascorbic acid, reference compound] 20.52

Indicate its recorded DPPH Assay (λ = 517 nm) Absorbance Decrease in 10^−4 mol/L Concentration [%] Mean ± SEM; the compound in question is O=C(c1ccc(Cl)cc1)c1ccc(OCCCN2CCN(c3ccc([N+](=O)[O-])cc3)CC2)cc1 [Compound 14] 6.31

Dear colleague, please send me the reported DPPH Assay (λ = 517 nm) Absorbance Decrease in 10^−4 mol/L Concentration [%] Mean ± SEM for CC(=O)c1ccc(N2CCN(CCCOc3ccc(C(=O)c4ccccc4)cc3)CC2)cc1 [Compound 10] when you can. 2.44

Hello, please tell me recorded DPPH Assay (λ = 517 nm) Absorbance Decrease in 10^−4 mol/L Concentration [%] Mean ± SEM for this one: COc1cccc(N2CCN(CCCOc3ccc(C(=O)c4ccccc4)cc3)CC2)c1.O=C(O)C(=O)O [Compound 16] 12.37
